Target: T1, ZFP SBS#406 (synthetic)
T1 chain: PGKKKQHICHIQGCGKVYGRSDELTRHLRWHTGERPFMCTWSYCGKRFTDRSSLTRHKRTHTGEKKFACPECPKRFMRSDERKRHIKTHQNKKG
Assay: EMSA
Details: tags: MBP fusion
metric: Kd (nM)

binder: GCGGCCGCA (dsDNA) DNA 1: GCGGCCGCA DNA 2: TGCGGCCGC
assay-value: 110

Provenance of the data: patent US20030068675
